Cited source: patent US8217035B2

Recorded pIC50 for the following compounds
target: PI3 kinase alpha (Homo sapiens); assay: PI3K ATP depletion assay (Biological Method 1, Assay 3; KinaseGlo luminescence); format: biochemical; conditions: ATP depletion assay, Biological Method 1; read-out: PI3 Kinase Alpha, IC50
Sequence (P42336 whole entry): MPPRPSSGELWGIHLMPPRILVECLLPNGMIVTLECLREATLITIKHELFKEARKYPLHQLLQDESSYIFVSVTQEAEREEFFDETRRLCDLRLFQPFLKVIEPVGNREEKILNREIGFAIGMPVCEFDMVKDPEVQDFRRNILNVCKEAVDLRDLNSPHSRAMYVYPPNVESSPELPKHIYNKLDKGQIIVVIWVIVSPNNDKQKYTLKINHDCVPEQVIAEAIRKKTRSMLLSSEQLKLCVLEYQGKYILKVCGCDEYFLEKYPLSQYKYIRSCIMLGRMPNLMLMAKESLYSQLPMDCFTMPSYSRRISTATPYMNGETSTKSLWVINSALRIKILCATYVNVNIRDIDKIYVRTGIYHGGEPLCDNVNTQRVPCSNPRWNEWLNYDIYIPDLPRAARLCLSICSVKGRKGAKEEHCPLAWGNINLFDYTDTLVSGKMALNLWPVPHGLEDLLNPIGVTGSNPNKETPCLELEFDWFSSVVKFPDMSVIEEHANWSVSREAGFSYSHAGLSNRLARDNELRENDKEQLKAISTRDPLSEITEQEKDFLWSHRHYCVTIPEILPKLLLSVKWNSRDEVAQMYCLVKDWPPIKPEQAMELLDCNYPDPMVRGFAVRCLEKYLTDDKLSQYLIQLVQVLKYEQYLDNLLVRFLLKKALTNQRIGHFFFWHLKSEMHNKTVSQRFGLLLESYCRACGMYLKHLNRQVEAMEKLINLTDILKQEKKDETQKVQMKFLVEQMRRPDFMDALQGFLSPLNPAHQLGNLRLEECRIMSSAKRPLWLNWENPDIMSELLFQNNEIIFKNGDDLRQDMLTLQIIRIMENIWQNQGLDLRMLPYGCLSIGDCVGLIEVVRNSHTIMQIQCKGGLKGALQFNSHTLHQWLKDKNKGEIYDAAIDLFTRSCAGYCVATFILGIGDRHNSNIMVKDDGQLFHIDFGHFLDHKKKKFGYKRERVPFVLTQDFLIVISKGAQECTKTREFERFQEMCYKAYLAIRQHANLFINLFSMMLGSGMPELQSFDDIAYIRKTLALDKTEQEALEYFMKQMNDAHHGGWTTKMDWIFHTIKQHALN
Sequence (P27986 whole entry partner): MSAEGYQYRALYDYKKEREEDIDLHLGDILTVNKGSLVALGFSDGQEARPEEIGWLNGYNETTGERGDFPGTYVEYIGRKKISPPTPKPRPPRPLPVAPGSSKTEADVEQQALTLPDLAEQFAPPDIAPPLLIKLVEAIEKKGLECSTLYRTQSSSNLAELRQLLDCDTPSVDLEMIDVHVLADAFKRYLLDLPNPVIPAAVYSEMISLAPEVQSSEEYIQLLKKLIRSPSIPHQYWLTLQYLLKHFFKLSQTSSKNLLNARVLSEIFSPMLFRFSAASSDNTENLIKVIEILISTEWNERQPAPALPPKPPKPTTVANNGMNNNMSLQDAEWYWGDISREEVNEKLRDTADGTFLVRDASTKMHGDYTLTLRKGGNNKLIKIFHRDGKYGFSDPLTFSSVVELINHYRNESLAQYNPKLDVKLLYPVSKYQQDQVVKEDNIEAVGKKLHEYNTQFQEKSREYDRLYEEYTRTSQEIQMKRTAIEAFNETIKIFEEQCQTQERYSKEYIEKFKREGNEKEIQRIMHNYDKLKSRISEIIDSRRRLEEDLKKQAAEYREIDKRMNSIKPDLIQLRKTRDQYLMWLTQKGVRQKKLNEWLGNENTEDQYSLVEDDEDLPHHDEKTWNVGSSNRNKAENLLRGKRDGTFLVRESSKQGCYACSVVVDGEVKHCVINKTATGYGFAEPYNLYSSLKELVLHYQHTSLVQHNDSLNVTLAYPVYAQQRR
pIC50: −log10 of the molar value.

Observe how each entry below is paired with its result.
> print(dat)
                                   compound  assay.value
1  Nc1ncc(-c2cc(Nc3cnc4ccccc4c3)nc(N3CCOCC3)n2)cc1S(N)(=O)=O       > 5.00
2  CN(C)CCOc1ccc(-c2cc(-c3ccc(N)nc3)nc(N3CCOCC3)n2)cn1       > 6.00
3  Nc1ncc(-c2cc(Nc3cnccc3C(F)(F)F)nc(N3CCOCC3)n2)cn1       > 6.00
4  Nc1cc(C(F)(F)F)c(-c2cc(N3CCOC(c4cccnc4)C3)nc(N3CCOCC3)n2)cn1 (stereo not shown)       > 6.00
5           Nc1ncc(-c2nc(N3CCOCC3)ncc2N)cn1       > 6.00

Prompt: Lab note: need pIC50 for `CC(=O)Nc1cc(-c2cnc(N)nc2)nc(N2CCOCC2)n1` on PI3 kinase alpha (Homo sapiens), anyone have it?
Completion: > 6.00

Prompt: Continue with `Nc1ccc(-c2cc(C(=O)N3CCNCC3)nc(N3CCOCC3)n2)cn1`
Completion: > 5.00
